testedOn: EGFR d746-750/T790M (Homo sapiens, UniProt P00533, DEL746-750/T790M)
Sequence (P00533 with tags, fused parts or gaps DEL746-750/T790M limits assumed): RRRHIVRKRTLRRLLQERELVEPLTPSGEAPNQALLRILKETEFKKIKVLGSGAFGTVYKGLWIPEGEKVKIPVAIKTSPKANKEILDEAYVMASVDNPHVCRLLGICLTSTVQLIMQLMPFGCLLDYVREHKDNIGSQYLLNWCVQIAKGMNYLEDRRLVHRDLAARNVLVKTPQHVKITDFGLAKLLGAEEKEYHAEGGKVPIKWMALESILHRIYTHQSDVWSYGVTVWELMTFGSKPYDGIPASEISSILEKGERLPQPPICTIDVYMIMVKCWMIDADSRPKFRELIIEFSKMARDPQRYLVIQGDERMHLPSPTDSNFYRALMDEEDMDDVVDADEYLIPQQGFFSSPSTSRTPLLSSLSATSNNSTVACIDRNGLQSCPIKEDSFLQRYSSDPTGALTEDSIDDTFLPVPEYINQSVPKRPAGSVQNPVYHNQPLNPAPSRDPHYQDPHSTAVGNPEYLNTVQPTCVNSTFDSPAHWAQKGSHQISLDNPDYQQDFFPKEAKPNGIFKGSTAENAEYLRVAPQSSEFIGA
protocolDetails: EGFR d746-750/T790M enzyme HTRF inhibition assay
conditionSummary: 40 μM ATP
readout: pIC50
Answers are plain numbers, as −log10 of the molar value.

>  <compound>
C=CC(=O)Nc1cc(Nc2ncc(F)c(-c3c4n(c5ccccc35)C(C)(C)COC4)n2)c(OC)cc1N(C)CCN(C)C.CS(=O)(=O)O [Embodiment 36, methanesulfonate]

>  <resultValue>
8.89

$$$$
>  <compound>
C=CC(=O)Nc1cc(Nc2nccc(-c3c4n(c5ccccc35)CCOC4)n2)c(OC)cc1N(C)CCN(CC)CC

>  <resultValue>
9.48

$$$$
>  <compound>
C=CC(=O)Nc1cc(Nc2ncc(F)c(-c3c4n(c5c(OC)cccc35)CCOC4)n2)c(OC)cc1N(C)CCN(C)C

>  <resultValue>
9.22

$$$$
>  <compound>
C=CC(=O)Nc1cc(Nc2nccc(-c3c4n(c5ccccc35)CCC4)n2)c(OC)cc1C#CCN(C)C

>  <resultValue>
9.19

$$$$

Count: 5. Required value per item: pIC50.
1. C=CC(=O)Nc1cc(Nc2nccc(-c3c4n(c5ccc(F)cc35)CCC4)n2)c(OC)cc1N(C)CCN(C)C
2. C=CC(=O)Nc1cc(Nc2nccc(-c3c4n(c5ccccc35)CCC4)n2)c(OC)cc1N(C)CCCN(C)C
3. C=CC(=O)Nc1cc(Nc2nccc(-c3c4n(c5ccccc35)CCC4)n2)c(OC)cc1N1CCN(C)CC1
4. C=CC(=O)Nc1cc(Nc2nccc(-c3c4n(c5ccccc35)CCOC4)n2)c(OC)cc1N(CC)CCN(C)C
5. C=CC(=O)Nc1cc(Nc2nccc(-c3c4n(c5ccccc35)CCC4)n2)c(OC)cc1CCCN(C)C

1: 9.74; 2: 8.59; 3: 8.57; 4: 9.59; 5: 8.72

###

Consider the following compounds; for each one, report its Tumor Volume (mm^3) 11 days.
System: human skin squamous cell A431 xenograft (CDX)
protocolDetails: Selectivity study in vivo, A431 xenograft (CDX) model
Parameters: species or system BALB/c nude mice
conditionSummary: Table 5 experiment, day 11, oral once daily: 33, 34, 40, 42, 43 20 mg/kg, AZD9291 5 mg/kg

>  <compound>
C=CC(=O)Nc1cc(Nc2nccc(-c3cn4c5c(cccc35)OCCC4)n2)c(OC)cc1N(C)CCN(C)C

>  <Tumor Volume (mm^3) 11 days>
445 mm^3

$$$$
>  <compound>
C=CC(=O)Nc1cc(Nc2nccc(-c3cn4c5c(cccc35)OC3(CC3)C4)n2)c(OC)cc1N(C)CCN(C)C

>  <Tumor Volume (mm^3) 11 days>
424 mm^3

$$$$
>  <compound>
C=CC(=O)Nc1cc(Nc2nccc(-c3cn4c5c(cccc35)OC3(CC3)C4)n2)c(OC)cc1N(C)CC(C)(C)N(C)C

>  <Tumor Volume (mm^3) 11 days>
516 mm^3

$$$$

Count: 3. Required value per item: Tumor Volume (mm^3) 11 days.
1. C=CC(=O)Nc1cc(Nc2nccc(-c3cn(C)c4ccccc34)n2)c(OC)cc1N(C)CCN(C)C [AZD9291, reference compound]
2. C=CC(=O)Nc1cc(Nc2ncc(F)c(-c3c4n(c5cc(F)ccc35)CCOC4)n2)c(OC)cc1N(C)CCN(C)C
3. C=CC(=O)Nc1cc(Nc2ncc(F)c(-c3c4n(c5cc(Cl)ccc35)CCOC4)n2)c(OC)cc1N(C)CCN(C)C

219 mm^3
428 mm^3
646 mm^3

###

Consider the following compounds; for each one, report its pIC50.
System: A431 cells EGFR WT
protocolDetails: A431 cell viability assay (Cell Titer-Glo, 6 days)
Assay type: cell-based, human
conditionSummary: Homo sapiens, A-431, 144 h; A431 cells, 6 days
Give bare numbers, as −log10 of the molar value.

Illustrative cases are given below, each with its answer.
>  <smilesStructure>
C=CC(=O)Nc1cc(Nc2nccc(-c3c4n(c5ccccc35)CCOC4)n2)c(OC)cc1N(CC)CCN(C)CC

>  <pIC50>
5.88

$$$$
>  <smilesStructure>
C=CC(=O)Nc1cc(Nc2nccc(-c3c4n(c5ccccc35)CCOC4)n2)c(OC)cc1N(C)CC(C)(C)N(C)C

>  <pIC50>
6.61

$$$$
>  <smilesStructure>
C=CC(=O)Nc1cc(Nc2ncc(F)c(-c3c4n(c5ccccc35)CCOC4)n2)c(OC)cc1N(C)CCN(C)C

>  <pIC50>
6.08

$$$$
>  <smilesStructure>
C=CC(=O)Nc1cc(Nc2nccc(-c3c4n(c5ccccc35)CCC4)n2)c(OC)cc1N(C)CCN(C)C

>  <pIC50>
6.15

$$$$
>  <smilesStructure>
C=CC(=O)Nc1cc(Nc2nccc(-c3cn4c5c(cccc35)OCCC4)n2)c(OC)cc1N(C)CCN(C)C

>  <pIC50>
6.55

$$$$
>  <smilesStructure>
C=CC(=O)Nc1cc(Nc2nccc(-c3c4n(c5ccccc35)CCOC4)n2)c(OCC)cc1N(C)CCN(C)C

>  <pIC50>
6.29

$$$$

The record that follows has no pIC50 shown yet.
Data point: `C=CC(=O)Nc1cc(Nc2nccc(-c3c4n(c5ccccc35)CCOC4)n2)c(OC)cc1N(C)CCN(C)C` ; pIC50 = 6.11

###

testedOn: EGFR wild type (Homo sapiens, UniProt P00533)
Sequence (P00533 25-1210): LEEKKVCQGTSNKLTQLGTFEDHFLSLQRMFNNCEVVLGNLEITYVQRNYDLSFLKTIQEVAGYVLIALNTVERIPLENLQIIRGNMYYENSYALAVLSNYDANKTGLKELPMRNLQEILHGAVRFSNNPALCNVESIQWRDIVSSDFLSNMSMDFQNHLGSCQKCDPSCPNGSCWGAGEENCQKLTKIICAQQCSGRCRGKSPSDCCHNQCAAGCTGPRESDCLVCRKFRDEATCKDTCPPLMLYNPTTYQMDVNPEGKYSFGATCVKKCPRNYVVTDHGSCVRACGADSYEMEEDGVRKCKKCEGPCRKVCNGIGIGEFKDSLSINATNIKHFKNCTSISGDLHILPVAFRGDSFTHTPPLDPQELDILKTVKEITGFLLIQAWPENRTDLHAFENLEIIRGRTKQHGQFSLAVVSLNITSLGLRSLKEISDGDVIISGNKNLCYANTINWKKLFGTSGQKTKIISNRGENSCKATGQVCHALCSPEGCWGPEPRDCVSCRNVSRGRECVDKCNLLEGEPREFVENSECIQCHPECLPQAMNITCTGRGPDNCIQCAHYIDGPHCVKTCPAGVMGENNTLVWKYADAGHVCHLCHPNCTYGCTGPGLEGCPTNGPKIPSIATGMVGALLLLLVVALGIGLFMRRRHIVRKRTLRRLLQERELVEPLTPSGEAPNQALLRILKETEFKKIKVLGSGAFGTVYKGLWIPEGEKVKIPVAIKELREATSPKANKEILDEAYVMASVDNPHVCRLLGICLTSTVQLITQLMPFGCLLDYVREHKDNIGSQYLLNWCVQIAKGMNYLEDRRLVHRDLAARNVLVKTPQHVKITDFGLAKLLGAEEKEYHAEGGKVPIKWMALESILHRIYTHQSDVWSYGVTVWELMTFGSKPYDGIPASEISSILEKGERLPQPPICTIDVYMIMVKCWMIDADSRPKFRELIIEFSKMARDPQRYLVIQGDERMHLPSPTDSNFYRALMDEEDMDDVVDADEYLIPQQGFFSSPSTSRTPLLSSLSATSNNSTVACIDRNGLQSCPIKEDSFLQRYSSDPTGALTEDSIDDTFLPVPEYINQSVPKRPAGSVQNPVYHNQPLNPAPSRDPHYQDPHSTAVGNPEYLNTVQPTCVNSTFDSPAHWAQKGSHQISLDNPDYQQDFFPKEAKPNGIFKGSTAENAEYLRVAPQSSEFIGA
Note to self: use yes only for IC50 readings below 2 nM; a reading exactly at 2 nM still gets no.

>  <smilesStructure>
C=CC(=O)Nc1cc(Nc2ncc(F)c(-c3c4n(c5cc(F)ccc35)CCOC4)n2)c(OC)cc1N(C)CCN(C)C

>  <testedOn>
EGFR wild type (Homo sapiens, UniProt P00533)

>  <cat>
no

$$$$

Hello, I'm reviewing records and need to know if IC50 of `C=CC(=O)Nc1cc(Nc2nccc(-c3c4n(c5ccccc35)CCC4)n2)c(OC)cc1OCCN(C)C` is below 2 nM. Could you check? yes

Hello, I'm reviewing records and need to know if IC50 of `C=CC(=O)Nc1cc(Nc2nccc(-c3c4n(c5ccccc35)CCC4)n2)c(OC)cc1N(C)CCN(C)C` is below 2 nM. Could you check? yes

Hello, I'm reviewing records and need to know if IC50 of `C=CC(=O)Nc1cc(Nc2nccc(-c3c4n(c5ccccc35)CCC4)n2)c(OC)cc1N1CC(N(C)C)C1` is below 2 nM. Could you check? no

Hello, I'm reviewing records and need to know if IC50 of `C=CC(=O)Nc1cc(Nc2nccc(-c3c4n(c5ccccc35)CCOC4)n2)c(OC)cc1N(C)CCNC` is below 2 nM. Could you check? yes

Hello, I'm reviewing records and need to know if IC50 of `C=CC(=O)Nc1cc(Nc2nccc(-c3c4n(c5ccccc35)CCOC4)n2)c(OC)cc1N(C)CCN(C)C` is below 2 nM. Could you check? yes

###

Consider the following compounds; for each one, report its pIC50.
testedOn: EGFR T790M/L858R (Homo sapiens, UniProt P00533, L858R/T790M)
Sequence (P00533 25-1210 T790M/L858R): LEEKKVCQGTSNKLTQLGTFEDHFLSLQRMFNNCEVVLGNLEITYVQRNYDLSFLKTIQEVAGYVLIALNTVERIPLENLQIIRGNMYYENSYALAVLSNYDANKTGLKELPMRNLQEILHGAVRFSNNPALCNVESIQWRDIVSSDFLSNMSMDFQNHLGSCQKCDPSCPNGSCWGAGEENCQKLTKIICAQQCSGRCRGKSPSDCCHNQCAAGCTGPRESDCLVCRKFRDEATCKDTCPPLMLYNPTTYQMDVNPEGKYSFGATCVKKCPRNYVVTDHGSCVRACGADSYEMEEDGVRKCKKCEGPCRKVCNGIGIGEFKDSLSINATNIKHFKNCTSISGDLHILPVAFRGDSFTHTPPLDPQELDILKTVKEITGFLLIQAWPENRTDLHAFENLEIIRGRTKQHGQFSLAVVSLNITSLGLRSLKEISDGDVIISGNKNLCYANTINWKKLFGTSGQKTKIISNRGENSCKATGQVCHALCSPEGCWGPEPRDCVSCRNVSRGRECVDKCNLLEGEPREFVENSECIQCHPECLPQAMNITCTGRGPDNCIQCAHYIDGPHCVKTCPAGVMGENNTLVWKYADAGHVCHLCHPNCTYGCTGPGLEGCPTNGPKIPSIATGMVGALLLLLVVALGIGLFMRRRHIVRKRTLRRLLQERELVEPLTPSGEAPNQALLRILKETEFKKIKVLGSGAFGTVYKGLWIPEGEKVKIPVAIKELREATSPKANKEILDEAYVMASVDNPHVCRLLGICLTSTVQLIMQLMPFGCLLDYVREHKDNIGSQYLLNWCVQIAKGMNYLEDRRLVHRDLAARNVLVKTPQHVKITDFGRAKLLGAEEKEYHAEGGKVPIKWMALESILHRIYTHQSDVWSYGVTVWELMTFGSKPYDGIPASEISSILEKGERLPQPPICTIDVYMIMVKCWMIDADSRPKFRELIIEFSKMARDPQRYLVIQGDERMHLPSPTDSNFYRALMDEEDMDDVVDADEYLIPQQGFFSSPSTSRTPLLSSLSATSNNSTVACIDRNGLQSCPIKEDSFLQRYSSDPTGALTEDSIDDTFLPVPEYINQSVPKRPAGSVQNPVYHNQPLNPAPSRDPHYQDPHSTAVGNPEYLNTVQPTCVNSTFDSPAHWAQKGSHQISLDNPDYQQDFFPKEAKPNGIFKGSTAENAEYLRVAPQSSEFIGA
protocolDetails: EGFR T790M/L858R enzyme HTRF inhibition assay
conditionSummary: 20 μM ATP, read-out: EGFR L858R/T79M IC50
Answers are plain numbers, as −log10 of the molar value.

>  <compound>
C=CC(=O)Nc1cc(Nc2nccc(-c3c4n(c5ccccc35)CCOC4)n2)c(OC)cc1N(C)CC(C)(C)N(C)C

>  <readout>
pIC50

>  <resultValue>
9.70

$$$$
>  <compound>
C=CC(=O)Nc1cc(Nc2nccc(-c3c4n(c5ccccc35)CCC4)n2)c(OC)cc1N(C)C(C)CN(C)C (stereo not drawn)

>  <readout>
pIC50

>  <resultValue>
9.64

$$$$
>  <compound>
C=CC(=O)Nc1cc(Nc2ncc(F)c(-c3c4n(c5ccccc35)CCOC4)n2)c(OC)cc1N(C)CC(C)(C)N(C)C

>  <readout>
pIC50

>  <resultValue>
10.00

$$$$
>  <compound>
C=CC(=O)Nc1cc(Nc2ncc(F)c(-c3c4n(c5ccccc35)C(C)(C)COC4)n2)c(OC)cc1N(C)CCN(C)C.CS(=O)(=O)O [Embodiment 36, methanesulfonate]

>  <readout>
pIC50

>  <resultValue>
8.89

$$$$
>  <compound>
C=CC(=O)Nc1cc(Nc2ncc(F)c(-c3c4n(c5ccccc35)CCOC4)n2)c(OC)cc1N(C)CCN(C)C

>  <readout>
pIC50

>  <resultValue>
9.85

$$$$

The record that follows has no pIC50 shown yet.
Data point: `C=CC(=O)Nc1cc(Nc2nccc(-c3c4n(c5ccccc35)CCC4)n2)c(OC)cc1N1CC(N(C)C)C1` ; pIC50 = 9.26

###

System: A431 cells EGFR WT
protocolDetails: A431 cell viability assay (Cell Titer-Glo, 6 days)
Assay type: cell-based, human
conditionSummary: Homo sapiens, A-431, 144 h; A431 cells, 6 days
readout: pIC50
Answers are plain numbers, as −log10 of the molar value.

>  <compound>
C=CC(=O)Nc1cc(Nc2nccc(-c3c4n(c5ccccc35)CCC4)n2)c(OC)cc1OCCN(C)C

>  <pIC50>
6.07

$$$$

Count: 4. Required value per item: pIC50.
1. C=CC(=O)Nc1cc(Nc2ncc(F)c(-c3c4n(c5ccccc35)C(C)(C)COC4)n2)c(OC)cc1N(C)CCN(C)C.CS(=O)(=O)O [Embodiment 36, methanesulfonate]
2. C=CC(=O)Nc1cc(Nc2nccc(-c3c4n(c5ccccc35)CCCC4)n2)c(OC)cc1N(C)CCN(C)C
3. C=CC(=O)Nc1cc(Nc2nccc(-c3c4n(c5ccccc35)CCOC4)n2)c(OC)cc1N(CC)CCNCC
4. C=CC(=O)Nc1cc(Nc2nccc(-c3c4n(c5ccccc35)CCC4)n2)c(OC)cc1N1CCN(C)CC1

1. 6.36
2. 6.64
3. 5.84
4. 5.34

Count: 4. Required value per item: pIC50.
1. C=CC(=O)Nc1cc(Nc2ncc(F)c(-c3c4n(c5ccccc35)CCOC4)n2)c(OC)cc1N(C)CCNC
2. C=CC(=O)Nc1cc(Nc2nccc(-c3c4n(c5cc(F)ccc35)CCOC4)n2)c(OC)cc1N(C)CCN(C)C
3. C=CC(=O)Nc1cc(Nc2nccc(-c3cn4c5c(cccc35)OC3(CC3)C4)n2)c(OC)cc1N(C)CC(C)(C)N(C)C
4. C=CC(=O)Nc1cc(Nc2nccc(-c3c4n(c5ccccc35)CCC4)n2)c(OC)cc1N(C)CCN1CCCC1

[5.89, 6.50, 6.26, 5.57]

Count: 2. Required value per item: pIC50.
1. C=CC(=O)Nc1cc(Nc2nccc(-c3c4n(c5ccccc35)CCOC4)n2)c(OC)cc1N(C)CCN(CC)CC
2. C=CC(=O)Nc1cc(Nc2nccc(-c3c4n(c5ccccc35)CCOC4)n2)c(OC)cc1N(C)CCNC(C)(C)C

1. 5.97
2. 5.58

Count: 3. Required value per item: pIC50.
1. C=CC(=O)Nc1cc(Nc2nccc(-c3c4n(c5ccccc35)CCC4)n2)c(OC)cc1N(C)CCCN(C)C
2. C=CC(=O)Nc1cc(Nc2nccc(-c3c4n(c5ccccc35)CCOC4)n2)c(OC)cc1N(C)CCNC(C)C
3. C=CC(=O)Nc1cc(Nc2nccc(-c3cn4c5c(cccc35)OC3(CC3)C4)n2)c(OC)cc1N(C)CCN(C)C

5.43
5.80
6.07
